B1: CPXM2 (parent)
chain: EILGCPLPDPNNYYHRRNEMTTTD

Variants of: B1
Assay: protein stability index of a GFP-peptide fusion (GPS, HEK-293T) (PSI 1-6); higher = more stable;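 further: lentivirally expressed fusions sorted by FACS into six bins by GFP to DsRed ratio, PSI derived from sequencing read proportions per bin multiplied by bin number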
Conditions: c terminus: a fixed tail appended
Tick YES if protein stability index is 4 or greater. Tick NO if protein stability index is less than 4.

mutant_name=E19N group_label=NO
mutant_name=R17A group_label=NO
mutant_name=T23D group_label=NO
mutant_name=I2R group_label=YES
mutant_name=T22W group_label=NO
mutant_name=I2T group_label=YES
mutant_name=R16A group_label=NO
mutant_name=T22A group_label=NO
mutant_name=T21N group_label=NO
mutant_name=N18I group_label=NO
mutant_name=L3D group_label=YES
mutant_name=M20E group_label=YES
mutant_name=H15N group_label=NO
mutant_name=P8G group_label=NO
mutant_name=D24K group_label=NO
mutant_name=R17S group_label=NO
mutant_name=M20V group_label=NO
mutant_name=P6F group_label=NO
mutant_name=T23K group_label=NO
mutant_name=R16I group_label=NO
mutant_name=G4I group_label=NO
